Test system: BT-549 breast
Experiment: NCI-60 one-dose screen, 48 h
Conditions: 10 µM unless noted
Compounds without any hit were thinned out: in the full panel of roughly 83,000, 20% have a hit. Active and inactive are the calls of the source. Rule for the calls: active = growth percent below 10; inactive = the rest.
Outcomes: Yes = active, No = inactive

- cpd_smiles: "COC(=O)[C@@H]1CCCN1C(=O)[C@@H]1CCCN1C(=O)[C@@H](Cc1c[nH]c2ccccc12)NC(=S)Nc1cc(C(F)(F)F)cc(C(F)(F)F)c1"
  answer_label: "No"
- cpd_smiles: "O=C1/C(=C/c2ccc(F)cc2)CN(Cc2cn(CCNc3ccnc4cc(Cl)ccc34)nn2)C/C1=C\\c1ccc(F)cc1"
  answer_label: "Yes"
- cpd_smiles: "FCOC(C(F)(F)F)C(F)(F)F"
  answer_label: "No"
- cpd_smiles: "Cc1ccc(S(=O)(=O)N2C/C(=C\\c3cc(F)cc(F)c3)C(=O)/C(=C/c3cc(F)cc(F)c3)C2)cc1"
  answer_label: "Yes"
- cpd_smiles: "NC(=O)c1cc(I)ccc1NC(=O)COc1ccc(Cl)cc1Cl"
  answer_label: "No"
